- assayedTarget: human M1 receptor (Homo sapiens, UniProt P11229)
- testDescription: In vitro functional assay of muscarinic acetylcholine receptor activity (aequorin calcium flux, reversal of EC80 acetylcholine response)
- Assay type: cell-based
- condition: CHO-K1 cells stably expressing human M1 receptor with aequorin; acetylcholine at EC80; calcium flux (luminescence); read-out: M1 IC50
- Procedure: CHO-K1 cells stably expressing human M1 receptor with aequorin (Perkin Elmer) were grown in F12 media (Gibco) containing 10% FBS (ATCC), 0.4 mg/mL geneticin (Sigma-Aldrich) and 0.25 mg/mL Zeocin (Invitrogen). Cells were grown as per the manufacturer's protocol. […] Compounds and cells were incubated at room temperature for 30 min in the dark. Acetylcholine at the EC80 concentration was added and calcium flux measured using a FlexStation 3 (Molecular Devices). […]
pIC50: −log10 of the molar value.
resultType: pIC50

Illustrative cases are given below, each with its answer.
N#Cc1ccc(N2C[C@@H]3CC[C@H]2CN3C(=O)CNC2(c3ccc(F)cc3F)CC2)nc1 [Example 83]	5.00 to 6.00
COc1ccccc1C1(NCCC(=O)N2CC3CCC(C2)N3c2ccc(C#N)cn2)CC1 [Example 15]	7.00 to 8.00

Fill blank: measured pIC50 of the compound COc1cncc(C(F)(F)CCC(=O)N2CC3CCC(C2)N3c2ccc(C#N)cn2)c1 [Example 160] is ____.
> 8.00

// next record COc1cccnc1C(F)(F)/C=C/C(=O)N1C[C@H]2CC[C@@H](C1)N2c1ccc(C#N)cn1 [Example 144]
> 8.00

Now consider N#Cc1ccc(N2C3CCC2CN(C(=O)CNC2(c4cc(F)cc(F)c4)CC2)C3)nc1 [Example 107] and answer again.
7.00 to 8.00

Now try CC(C)(OCC(=O)N1CC2CCC(C1)N2c1ccc(C#N)cn1)c1cccc2ncnn12 (racemic) [Example 203] .
6.00 to 7.00

Same again, this time with COc1cccc2c1CCN(CCC(=O)N1C[C@H]3CC[C@@H](C1)N3c1ccc(C#N)cn1)C2C (mixture of isomers) [Example 38]
5.00 to 6.00

Next record, please: COc1ccc(Br)c(C2(OCC(=O)N3CC4CCC(C3)N4c3ccc(C#N)cn3)CC2)c1 [Example 226]
> 8.00

Okay, and COc1cc(C2(NCC(=O)N3CC4CCC(C3)N4c3ccc(C#N)cn3)CCC2)ccn1 [Example 118] ?
7.00 to 8.00

Try this compound next: N#Cc1ccc(N2C3CCC2CN(C(=O)COC2(c4ccc(F)cc4)CCC2)C3)nc1 [Example 234]
7.00 to 8.00

Try this compound too: N#Cc1ccc(N2C3CCC2CN(C(=O)COC2(c4cc(F)cc(F)c4)CC2)C3)nc1 [Example 210]
7.00 to 8.00

N#Cc1ccc(N2C3COCC2CN(C(=O)CNC2(c4ccc(F)cc4F)CC2)C3)nc1 [Example 78] ?
6.00 to 7.00

Please do the same for N#Cc1ccc(N2C[C@H]3C[C@@H]2CN3C(=O)COC2(c3ccc(F)c(F)c3)CC2)nc1 [Example 285] as well.
< 6.00

Try this compound too: N#Cc1ccc(N2C3CCC2CN(C(=O)COC2(c4ccc(F)c(F)c4)CC2)C3)nn1 [Example 280]
6.00 to 7.00

Now the same for [2H]C([2H])([2H])Oc1cc(C(F)(F)/C=C/C(=O)N2CC3CCC(C2)N3c2ccc(C#N)cn2)ccn1 [Example 149]
> 8.00

Lookup N#Cc1ccc(N2C3CCC2CN(C(=O)COC2(c4cncc(OCC(F)(F)F)c4)CCC2)C3)nc1 [Example 314]
7.00 to 8.00

###

- assayedTarget: human M1 receptor (Homo sapiens, UniProt P11229)
- Sequence (P11229 1-460): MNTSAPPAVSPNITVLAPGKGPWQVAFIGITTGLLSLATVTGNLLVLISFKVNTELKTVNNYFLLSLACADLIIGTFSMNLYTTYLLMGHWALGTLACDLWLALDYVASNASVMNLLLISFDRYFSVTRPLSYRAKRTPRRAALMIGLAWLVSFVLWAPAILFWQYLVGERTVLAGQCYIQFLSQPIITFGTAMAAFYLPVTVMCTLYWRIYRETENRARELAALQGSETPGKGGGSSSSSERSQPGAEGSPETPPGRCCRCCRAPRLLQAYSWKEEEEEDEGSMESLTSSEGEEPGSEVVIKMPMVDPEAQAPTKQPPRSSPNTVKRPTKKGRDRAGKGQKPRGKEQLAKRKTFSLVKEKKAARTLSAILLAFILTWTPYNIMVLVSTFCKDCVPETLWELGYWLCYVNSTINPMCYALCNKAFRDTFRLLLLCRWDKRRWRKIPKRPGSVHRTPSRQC
- testDescription: In vitro functional assay of muscarinic acetylcholine receptor activity (aequorin calcium flux, reversal of EC80 acetylcholine response)
- Assay type: cell-based
- condition: CHO-K1 cells stably expressing human M1 receptor with aequorin; acetylcholine at EC80; calcium flux (luminescence); read-out: M1 IC50
pIC50: −log10 of the molar value.
Listing of recorded pIC50 by entry.

// solved cases for pIC50 follow
[2H]C([2H])([2H])Oc1cc(C(F)(F)CCC(=O)N2CC3CCC(C2)N3c2ccc(C#N)cn2)ccn1 [Example 165]	7.00 to 8.00
N#Cc1ccc(N2C3CCC2CN(C(=O)COC2(c4ncccc4F)CCC2)C3)nc1 [Example 250]	6.00 to 7.00

pIC50 lookup needed for N#Cc1ccc(N2C3CCC2CN(C(=O)COC2(c4cc(F)ccc4F)CC2)C3)nc1 [Example 213] , thanks.
7.00 to 8.00

Now consider COc1cc(C(F)(F)CCC(=O)N2CC3CCC(C2)N3c2ccc(C#N)cn2)ccn1 [Example 138] .
> 8.00

Now the same for N#Cc1ccc(N2C3CCC2CN(C(=O)COCC2(c4ccc(F)cc4)CC2)C3)nc1 [Example 188]
5.00 to 6.00

Request: N#Cc1ccc(N2C3CCC2CN(C(=O)COC2(c4cncc(F)c4)CCCC2)C3)nc1 [Example 268]
7.00 to 8.00

Next up: N#Cc1ccc(N2C3CCC2CN(C(=O)CNC2(c4cc(F)ccc4F)CC2)C3)nc1 [Example 71]
6.00 to 7.00

Also N#Cc1ccc(N2C3CCC2CN(C(=O)/C=C/C(F)(F)c2ccc(F)cc2)C3)nc1 [Example 123] , if possible.
7.00 to 8.00

###

- assayedTarget: human M1 receptor (Homo sapiens, UniProt P11229)
- testDescription: In vitro functional assay of muscarinic acetylcholine receptor activity (aequorin calcium flux, reversal of EC80 acetylcholine response)
- Assay type: cell-based
- condition: CHO-K1 cells stably expressing human M1 receptor with aequorin; acetylcholine at EC80; calcium flux (luminescence); read-out: M1 IC50
IC50: recorded values

# annotated cases, reported IC50 shown
COc1ccc(C2(OCC(=O)N3CC4CCC(C3)N4c3ccc(C#N)cn3)CCC2)nc1	1000 to 10000 nM
C[C@H](NCC(=O)N1CC2CCC(C1)N2c1ccc(C#N)cn1)c1ccc(F)cc1F	< 10 nM
CC(NCCC(=O)N1C[C@H]2CC[C@@H](C1)N2c1ccc(C#N)cn1)c1cccc2ncsc12 (mixture of isomers)	10 to 100 nM
CC(OCCC(=O)N1CC2CCC(C1)N2c1ccc(C#N)cn1)c1cccc2ncnn12 (racemic)	< 10 nM
N#Cc1ccc(N2C3CCC2CN(C(=O)CNC2(c4cccc(C#N)c4)CC2)C3)nc1	100 to 1000 nM

Request body: readout IC50, system human M1 receptor (Homo sapiens, UniProt P11229), query COc1cc(C2(NCC(=O)N3CC4CCC(C3)N4c3ccc(C#N)cn3)CC2)ccn1 . Return the value.
10 to 100 nM

Can you handle N#Cc1ccc(N2[C@@H]3CC[C@H]2CN(C(=O)CCNC2(c4ccc(F)c(Cl)c4)CC2)C3)nc1 next?
10 to 100 nM

Likewise for Cn1c(C2(OCC(=O)N3CC4CCC(C3)N4c3ccc(C#N)cn3)CCC2)cccc1=O ?
10 to 100 nM

###

- assayedTarget: human M1 receptor (Homo sapiens, UniProt P11229)
- testDescription: In vitro functional assay of muscarinic acetylcholine receptor activity (aequorin calcium flux, reversal of EC80 acetylcholine response)
- Type: cell-based
- condition: CHO-K1 cells stably expressing human M1 receptor with aequorin; acetylcholine at EC80; calcium flux (luminescence); read-out: M1 IC50
In this section we review reported IC50 values for a set of compounds.

Suppose we examine the compound N#Cc1ccc(N2C3CCC2CN(C(=O)COC2(c4cccc(C#N)c4)CC2)C3)nc1 [Example 295] ; what IC50 value has been reported?
100 to 1000 nM

Also need N#Cc1ccc(N2C3CCC2CN(C(=O)/C=C/C(F)(F)c2cccc4ncnn24)C3)nc1 [Example 148] , thanks.
< 10 nM

Also, N#Cc1ccc(N2C3CCC2CN(C(=O)COC2(c4cccc(Br)c4F)CC2)C3)nc1 [Example 219] please.
10 to 100 nM

Repeat for the following compound: COc1cccc(C2(OCC(=O)N3CC4CCC(C3)N4c3ccc(C#N)cn3)CCC2)c1 [Example 237]
< 10 nM
